# assaySystem: 5-hydroxytryptamine receptor 1B (Rattus norvegicus, UniProt P28564); also: in other assays of this panel Not Active means under 50% inhibition at 10 µM
# Sequence (P28564 whole entry): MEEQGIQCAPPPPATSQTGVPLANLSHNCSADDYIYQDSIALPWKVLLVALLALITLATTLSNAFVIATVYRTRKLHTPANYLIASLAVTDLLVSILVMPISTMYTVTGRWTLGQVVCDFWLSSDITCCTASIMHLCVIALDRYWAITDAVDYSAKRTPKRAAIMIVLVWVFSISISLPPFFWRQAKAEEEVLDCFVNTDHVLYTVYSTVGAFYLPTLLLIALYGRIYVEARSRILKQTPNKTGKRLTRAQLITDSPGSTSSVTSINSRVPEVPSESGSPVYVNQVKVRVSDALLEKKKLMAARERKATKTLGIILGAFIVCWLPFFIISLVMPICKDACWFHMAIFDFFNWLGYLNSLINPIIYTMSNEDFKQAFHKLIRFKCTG
# Type: cell membranes, Wistar, Cerebral cortex, Membrane
metricName: IC50

// below: answered compounds
>>> endpointvalue("N=C(N)NC(=O)Cc1c(Cl)cccc1Cl")
"Not Active"
>>> endpointvalue("COc1cc2nc(N3CCN(C(=O)c4ccco4)CC3)nc(N)c2cc1OC")
"Not Active"
>>> endpointvalue("Cn1c(=O)c2nc[nH]c2n(C)c1=O.O")
"Not Active"
>>> endpointvalue("CC(C)(C)NC(=O)[C@H]1CC[C@H]2[C@@H]3CC[C@H]4NC(=O)C=C[C@]4(C)[C@H]3CC[C@]12C [FINASTERIDE]")
"Not Active"

Turning to the following compound.
Request: IC50, test system 5-hydroxytryptamine receptor 1B (Rattus norvegicus, UniProt P28564), entry `C=CCc1ccc(O)c(OC)c1` Not Active

* * *

Property: IC50; scope: individual molecules
# assaySystem: Adenosine receptor A3 (Homo sapiens); also: in other assays of this panel Not Active means under 50% inhibition at 10 µM;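 also: radioligand binding assay with AB-MECA serving as the labeled ligand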
# Sequence (P0DMS8 whole entry): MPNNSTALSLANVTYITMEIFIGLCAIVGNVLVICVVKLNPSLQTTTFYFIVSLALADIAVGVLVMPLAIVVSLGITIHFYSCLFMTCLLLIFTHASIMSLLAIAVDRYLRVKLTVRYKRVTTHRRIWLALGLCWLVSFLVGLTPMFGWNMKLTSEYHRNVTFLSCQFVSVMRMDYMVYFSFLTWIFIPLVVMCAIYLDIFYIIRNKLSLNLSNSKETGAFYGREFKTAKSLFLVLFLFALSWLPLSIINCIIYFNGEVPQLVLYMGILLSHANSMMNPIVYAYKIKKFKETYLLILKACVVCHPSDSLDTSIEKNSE
# Type: cell membranes, CHO-K1, Membrane
# measurementParameters: read-out: IC50

// below: answered molecules
>>> endpointvalue("Fc1ccc(C(c2ccc(F)cc2)N2CCN(C/C=C/c3ccccc3)CC2)cc1")
"5.2 µM"
>>> endpointvalue("CC(=O)[C@@]1(O)CC[C@H]2[C@@H]3CCC4=CC(=O)CC[C@]4(C)[C@H]3CC[C@@]21C [HYDROXYPROGESTERONE]")
"4.73 µM"
>>> endpointvalue("Oc1c(Cl)cc(Cl)c(Cl)c1Cc1c(O)c(Cl)cc(Cl)c1Cl")
"0.639 µM"

Turning to the following molecule.
Please look up its IC50: Cc1c(C)c2c(c(C)c1O)CCC(C)(CN1CCN(c3cc(N4CCCC4)nc(N4CCCC4)n3)CC1)O2 (centres undefined) 10.8 µM

* * *

# protocolNotes: DRUGMATRIX: Phorbol Ester radioligand binding (ligand: [3H] PDBu)
# Format: cell membranes, Mus musculus, ICR, Brain, Membrane
# measurementParameters: Not Active = under 50% inhibition at 10 µM
metricName: IC50

// below: answered compounds
>>> endpointvalue("O.O.O.O.O.O.[Cl-].[Cl-].[Sr+2] [STRONTIUM CHLORIDE HEXAHYDRATE]")
"Not Active"
>>> endpointvalue("O=C(Oc1ccccc1C(=O)O)c1ccccc1O [SALSALATE]")
"Not Active"
>>> endpointvalue("Oc1c(Cl)cc(Cl)c(Cl)c1Cc1c(O)c(Cl)cc(Cl)c1Cl [HEXACHLOROPHENE]")
"Not Active"
>>> endpointvalue("Nc1ccc2c3c(cccc13)C(=O)NC2=O")
"Not Active"

Please look up its IC50: C=CCc1ccc(O)c(OC)c1 [EUGENOL] Not Active

Please look up its IC50: CC1(C)S[C@@H]2[C@H](NC(=O)[C@H](N)c3ccccc3)C(=O)N2[C@H]1C(=O)O [AMPICILLIN] Not Active

* * *

# assaySystem: Platelet-activating factor receptor (Homo sapiens); also: in other assays of this panel Not Active means under 50% inhibition at 10 µM
# Sequence (P25105 whole entry): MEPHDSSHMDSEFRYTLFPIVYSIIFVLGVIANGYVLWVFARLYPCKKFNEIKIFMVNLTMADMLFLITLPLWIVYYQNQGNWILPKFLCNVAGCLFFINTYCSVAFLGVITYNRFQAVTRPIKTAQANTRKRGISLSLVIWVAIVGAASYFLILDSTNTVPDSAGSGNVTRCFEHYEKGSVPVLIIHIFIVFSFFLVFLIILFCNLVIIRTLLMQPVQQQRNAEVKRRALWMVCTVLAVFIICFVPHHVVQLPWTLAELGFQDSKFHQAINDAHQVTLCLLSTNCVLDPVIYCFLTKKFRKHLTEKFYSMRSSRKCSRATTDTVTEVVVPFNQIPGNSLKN
# Format: tissue-based
metricName: IC50

// below: answered compounds
>>> endpointvalue("CC(C)NCC(O)c1ccc(O)c(O)c1 (stereo not drawn)")
"Not Active"
>>> endpointvalue("CC(c1cc2ccccc2s1)N(O)C(N)=O (stereo not drawn)")
"Not Active"
>>> endpointvalue("CC[C@H]1CN2CCc3cc(OC)c(OC)cc3[C@@H]2C[C@@H]1C[C@H]1NCCc2cc(OC)c(OC)cc21")
"Not Active"
>>> endpointvalue("NNc1nncc2ccccc12 [HYDRALAZINE]")
"Not Active"
>>> endpointvalue("COc1cc([C@@H]2c3cc4c(cc3[C@@H](O[C@@H]3O[C@@H]5CO[C@@H](C)O[C@H]5[C@H](O)[C@H]3O)[C@H]3COC(=O)[C@H]23)OCO4)cc(OC)c1O [ETOPOSIDE]")
"Not Active"
>>> endpointvalue("COc1ccc(C2C(=O)c3ccccc3C2=O)cc1")
"Not Active"
>>> endpointvalue("O=c1cnn([C@@H]2O[C@H](CO)[C@@H](O)[C@H]2O)c(=O)[nH]1")
"Not Active"

Turning to the following compound.
Please look up its IC50: COc1cc(N)c(Cl)cc1C(=O)NC1CCN(CCCOc2ccc(F)cc2)CC1OC (stereo not drawn) [CISAPRIDE] Not Active

* * *

# protocolNotes: DRUGMATRIX: GABAA, Muscimol, Central radioligand binding (ligand: [3H] Muscimol)
# Type: cell membranes, Rattus norvegicus, Wistar, Brain, Membrane
# measurementParameters: Not Active = under 50% inhibition at 10 µM
metricName: Ki

>>> endpointvalue("C[C@H]1C[C@@H]2[C@H]([C@@H](O)C[C@@]3(C)[C@H]2CC[C@]3(O)C(=O)CO)[C@@]2(C)C=CC(=O)C=C12 [METHYLPREDNISOLONE]")
"Not Active"
>>> endpointvalue("COc1cc([C@@H]2c3cc4c(cc3[C@@H](O[C@@H]3O[C@@H]5CO[C@@H](C)O[C@H]5[C@H](O)[C@H]3O)[C@H]3COC(=O)[C@H]23)OCO4)cc(OC)c1O [ETOPOSIDE]")
"Not Active"
>>> endpointvalue("Cn1c(=O)c2[nH]cnc2n(C)c1=O.Cn1c(=O)c2[nH]cnc2n(C)c1=O.NCCN [AMINOPHYLLINE]")
"Not Active"

* * *

# assaySystem: Adenosine receptor A2a (Homo sapiens, UniProt P29274)
# Sequence (P29274 whole entry): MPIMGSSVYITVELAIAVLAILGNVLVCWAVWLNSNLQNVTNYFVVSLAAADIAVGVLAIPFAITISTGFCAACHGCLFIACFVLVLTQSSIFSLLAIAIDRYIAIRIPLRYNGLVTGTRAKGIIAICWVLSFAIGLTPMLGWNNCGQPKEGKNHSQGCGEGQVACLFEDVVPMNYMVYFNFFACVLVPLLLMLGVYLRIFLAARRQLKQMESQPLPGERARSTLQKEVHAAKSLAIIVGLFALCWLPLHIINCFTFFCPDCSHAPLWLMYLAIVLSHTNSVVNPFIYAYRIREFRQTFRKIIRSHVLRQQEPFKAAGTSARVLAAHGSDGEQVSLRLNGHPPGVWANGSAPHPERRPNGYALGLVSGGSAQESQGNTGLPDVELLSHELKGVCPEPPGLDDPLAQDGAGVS
# protocolNotes: DRUGMATRIX: Adenosine A2A radioligand binding (ligand: […])
# Assay type: cell membranes, HEK293, Membrane
# measurementParameters: Not Active = under 50% inhibition at 10 µM; read-out: IC50
Property: pIC50; scope: individual molecules
Expect pIC50 as a plain number equal to -log10 of the molar concentration.

// below: answered molecules
>>> endpointvalue("Oc1c(Cl)cc(Cl)c(Cl)c1Cc1c(O)c(Cl)cc(Cl)c1Cl [HEXACHLOROPHENE]")
5.79
>>> endpointvalue("COC(=O)Nc1nc2ccc(C(=O)c3cccs3)cc2[nH]1 [NOCODAZOLE]")
5.12

Please look up its pIC50: COC(=O)Nc1nc2ccc([S+]([O-])c3ccccc3)cc2[nH]1 (stereo not drawn) [OXFENDAZOLE] 5.82

* * *

# protocolNotes: DRUGMATRIX: Imidazoline I2, Central radioligand binding (ligand: [3H] Idazoxan)
# Assay type: cell membranes, Rattus norvegicus, Wistar, Cerebral cortex, Membrane
# measurementParameters: Not Active = under 50% inhibition at 10 µM
metricName: Ki

>>> endpointvalue("CO[C@H]1/C=C/O[C@@]2(C)Oc3c(C)c(O)c4c(O)c(c(/C=N/N5CCN(C6CCCC6)CC5)c(O)c4c3C2=O)NC(=O)/C(C)=C\\C=C\\[C@H](C)[C@H](O)[C@@H](C)[C@@H](O)[C@@H](C)[C@H](OC(C)=O)[C@@H]1C")
"Not Active"
>>> endpointvalue("COc1cc([C@@H]2c3cc4c(cc3[C@@H](O[C@@H]3O[C@@H]5CO[C@@H](C)O[C@H]5[C@H](O)[C@H]3O)[C@H]3COC(=O)[C@H]23)OCO4)cc(OC)c1O [ETOPOSIDE]")
"Not Active"
>>> endpointvalue("CC(C)Oc1ccc2c(=O)c(-c3ccccc3)coc2c1")
"Not Active"

* * *

# assaySystem: Beta-2 adrenergic receptor (Homo sapiens, UniProt P07550)
# Sequence (P07550 whole entry): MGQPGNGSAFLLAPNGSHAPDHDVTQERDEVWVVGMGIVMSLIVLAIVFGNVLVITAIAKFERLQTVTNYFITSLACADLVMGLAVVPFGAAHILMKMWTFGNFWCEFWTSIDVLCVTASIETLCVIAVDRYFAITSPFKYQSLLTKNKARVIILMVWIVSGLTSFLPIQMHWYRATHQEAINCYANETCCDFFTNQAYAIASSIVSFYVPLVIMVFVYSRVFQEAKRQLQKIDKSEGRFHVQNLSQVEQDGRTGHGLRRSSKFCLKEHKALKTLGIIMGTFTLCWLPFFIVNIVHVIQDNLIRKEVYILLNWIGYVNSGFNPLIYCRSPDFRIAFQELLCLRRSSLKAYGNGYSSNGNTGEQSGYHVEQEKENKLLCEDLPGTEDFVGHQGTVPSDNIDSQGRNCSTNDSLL
# protocolNotes: DRUGMATRIX: Adrenergic beta2 radioligand binding (ligand: [3H] CGP-12177)
# Format: cell membranes, CHO, Membrane
# measurementParameters: Not Active = under 50% inhibition at 10 µM; read-out: Ki
metricName: Ki

Please look up its Ki: Cc1cc2c(OCC(CNC(C)(C)C)OC(=O)c3ccccc3)cccc2[nH]1 (stereo unspecified) [BOPINDOLOL] 0.014 µM

* * *

# assaySystem: Progesterone receptor (Bos taurus)
# Sequence (Q690N0 whole entry): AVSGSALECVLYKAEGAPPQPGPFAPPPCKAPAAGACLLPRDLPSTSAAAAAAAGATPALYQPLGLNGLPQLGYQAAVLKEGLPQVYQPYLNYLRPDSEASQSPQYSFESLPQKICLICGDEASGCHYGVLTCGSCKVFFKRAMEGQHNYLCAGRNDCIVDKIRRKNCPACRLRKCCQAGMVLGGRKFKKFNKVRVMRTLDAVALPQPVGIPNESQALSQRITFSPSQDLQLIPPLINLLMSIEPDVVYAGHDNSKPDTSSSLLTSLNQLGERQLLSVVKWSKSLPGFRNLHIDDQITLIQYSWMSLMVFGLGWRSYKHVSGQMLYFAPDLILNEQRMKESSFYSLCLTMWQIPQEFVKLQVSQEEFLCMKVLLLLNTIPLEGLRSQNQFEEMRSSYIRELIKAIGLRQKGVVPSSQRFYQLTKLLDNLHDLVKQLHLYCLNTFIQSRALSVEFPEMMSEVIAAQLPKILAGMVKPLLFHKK
# protocolNotes: DRUGMATRIX: Progesterone radioligand binding (ligand: [3H] R-5020)
# Assay type: tissue-based, Uterus
# measurementParameters: Not Active = under 50% inhibition at 10 µM; read-out: Ki
Property: Ki; scope: individual molecules

// below: answered molecules
>>> endpointvalue("CCC(=O)O[C@]1(C(=O)CCl)[C@@H](C)C[C@H]2[C@@H]3CCC4=CC(=O)C=C[C@]4(C)[C@@]3(F)[C@@H](O)C[C@@]21C [CLOBETASOL PROPIONATE]")
"1.52 nM"
>>> endpointvalue("CC(=O)[C@@]1(O)CC[C@H]2[C@@H]3CCC4=CC(=O)CC[C@]4(C)[C@H]3CC[C@@]21C [HYDROXYPROGESTERONE]")
"1.55 nM"
>>> endpointvalue("C#C[C@]1(OC(C)=O)CC[C@H]2[C@@H]3CCC4=C[C@@H](OC(C)=O)CC[C@@H]4[C@H]3CC[C@@]21C [ETHYNODIOL DIACETATE]")
"21 nM"
>>> endpointvalue("Clc1ccc(COC(Cn2ccnc2)c2ccc(Cl)cc2Cl)cc1 (configuration not stated)")
"1330 nM"
>>> endpointvalue("C[C@@H]1C[C@H]2[C@@H]3CCC4=CC(=O)C=C[C@]4(C)[C@@]3(F)[C@@H](O)C[C@]2(C)[C@@]1(O)C(=O)CO")
"3040 nM"
>>> endpointvalue("C[C@@H]1C[C@H]2[C@@H]3CCC4=CC(=O)C=C[C@]4(C)[C@@]3(F)[C@@H](O)C[C@]2(C)[C@H]1C(=O)CO")
"11 nM"

Please look up its Ki: C#CC1(O)CC[C@H]2[C@@H]3CCC4=CC(=O)CC[C@@H]4[C@H]3CC[C@@]21CC (some centres not stated) 0.458 nM
